This section presents molecules with their documented IC50 values.
Biological target: MRGPRX2 (Homo sapiens)
Experiment: MRGPRX2 reporter cell assay (NFAT-RE luciferase, Substance P stimulation)
Assay type: cell-based
Settings: U2OS cells stably transfected with MRGPRX2 and NFAT-RE luciferase reporter; Substance P at EC80; class symbols

Worked cases, IC50 given:
chemical_smiles | IC50
FC(F)Oc1nocc1-c1c(-c2c(C(F)F)nn3c2OCCC3)[nH]c2ncccc12 | 10 to 100 nM
CN(C)S(=O)(=O)N[C@@H]1COc2c(-c3[nH]c4ncccc4c3-c3cn(C)nc3OC(F)F)c(C(F)F)nn2C1 | < 10 nM
Cn1cc(-c2c(-c3c(C(F)F)nn4c3OC[C@@H](N3CCOC3=O)C4)[nH]c3ncccc23)c(OC(F)F)n1 | < 10 nM
Cn1cc(-c2c(-c3c(CF)nn4c3OCCC4)[nH]c3ncccc23)c(OC(F)F)n1 | < 10 nM
COc1ccc(C#N)c(-c2c(-c3c(C(F)F)nn4c3OC[C@@H](O)C4)[nH]c3ncccc23)c1 | < 10 nM

Item: C[C@@]1(N)COc2c(-c3[nH]c4ncccc4c3-c3cccnc3OC(F)F)c(C(F)F)nn2C1 Test system: MRGPRX2 (Homo sapiens) Read-out: IC50 Value: ? < 10 nM

Short answer please: IC50, MRGPRX2 (Homo sapiens), entry COc1ccc(C#N)c(-c2c(-c3c(C)nn4cc(O)cnc34)[nH]c3ncccc23)c1 < 10 nM

Under MRGPRX2 (Homo sapiens): IC50 value of Cc1ccc(F)c(-c2c(-c3cn(C)nc3C(F)(F)F)[nH]c3ncccc23)c1 ? < 10 nM

Item COc1ccccc1-c1[nH]c2ncccc2c1-c1cc(C)ccc1F with MRGPRX2 (Homo sapiens) - IC50? < 10 nM

Write down the reported IC50 of FC(F)Oc1nnc(Cl)cc1-c1c(-c2c(C(F)F)nn3c2OCCC3)[nH]c2ncccc12 , test system: MRGPRX2 (Homo sapiens). 10 to 100 nM

Request - read-out IC50 | tested on MRGPRX2 (Homo sapiens) | molecule COc1ncc(F)cc1-c1c(-c2c(C(F)F)nn3c2OC[C@@H](O)C3)[nH]c2ncccc12 < 10 nM

Please provide the recorded IC50 for Cn1cc(-c2c(-c3c(C(F)F)nn4c3OC[C@@H](N3CCCS3(=O)=O)C4)[nH]c3ncccc23)c(OC(F)F)n1 , tested on MRGPRX2 (Homo sapiens). < 10 nM

----------
Biological target: MRGPRX2 (Homo sapiens, UniProt Q96LB1)
Sequence (Q96LB1 whole entry): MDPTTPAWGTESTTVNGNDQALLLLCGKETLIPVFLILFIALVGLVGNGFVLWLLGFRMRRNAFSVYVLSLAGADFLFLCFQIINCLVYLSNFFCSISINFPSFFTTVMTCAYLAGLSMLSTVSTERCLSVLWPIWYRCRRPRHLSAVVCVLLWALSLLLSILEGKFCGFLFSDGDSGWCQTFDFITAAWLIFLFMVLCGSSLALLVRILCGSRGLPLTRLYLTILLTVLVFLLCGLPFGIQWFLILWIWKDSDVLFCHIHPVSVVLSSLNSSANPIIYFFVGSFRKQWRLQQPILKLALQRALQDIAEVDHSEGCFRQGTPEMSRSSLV
Assay: MRGPRX2 reporter cell assay (NFAT-RE luciferase, Substance P stimulation)
Assay type: cell-based
Conditions: U2OS cells stably transfected with MRGPRX2 and NFAT-RE luciferase reporter; Substance P at EC80; class symbols
measured_property: IC50

compound | measured_property | value_reported
O[C@@H]1COc2c(-c3[nH]c4ncccc4c3-c3ccccc3OC(F)F)c(C(F)F)nn2C1 [EX. 469] | IC50 | < 10 nM
COc1nsc(OC)c1-c1[nH]c2ncccc2c1-c1ccccc1C#N [EX. 137] | IC50 | < 10 nM
CCn1cc(-c2c(-c3c(C(F)F)nn4c3OCCC4)[nH]c3ncccc23)c(OC(F)F)n1 [EX. 400] | IC50 | 10 to 100 nM
CS(=O)(=O)N[C@@H]1COc2c(-c3[nH]c4ncccc4c3-c3ccncc3C#N)c(C(F)F)nn2C1 [EX. 523] | IC50 | < 10 nM
N#Cc1ccccc1-c1c(-c2csnc2C(F)F)[nH]c2ncccc12 [EX. 75] | IC50 | < 10 nM
COc1ccccc1-c1[nH]c2ncccc2c1-c1cc(C)ccc1C#N [EX. 316] | IC50 | < 10 nM
Cc1cc(-c2c(-c3cnn4c3OCCC4)[nH]c3ncccc23)c(C#N)s1 [EX. 380] | IC50 | 10 to 100 nM

Moving on to the next compound.
I'd like to know its IC50. The compound in question is COc1ccc(C#N)c(-c2c(-c3c(C(F)F)nn4c3OCC3(CC3)C4)[nH]c3ncccc23)c1 [EX. 183] < 10 nM

----------
Molecular target: UniProt:Q96LB1
Assay: MRGPRX2 reporter cell assay (NFAT-RE luciferase, Substance P stimulation)
Type: cell-based
Conditions: U2OS cells stably transfected with MRGPRX2 and NFAT-RE luciferase reporter; Substance P at EC80; class symbols
pIC50: −log10 of the molar value.
measured_property: pIC50

compound | test_target | pIC50
N#Cc1cccnc1-c1c(-c2c(C(F)F)nn3c2OCCC3)[nH]c2ncccc12 [EX. 413] | UniProt:Q96LB1 | 6.00 to 7.00

Record lookup: for UniProt:Q96LB1, what pIC50 belongs to CO[C@@H]1COc2c(-c3[nH]c4ncccc4c3-c3cccnc3OC(F)F)c(C)nn2C1 [EX. 497] ? > 8.00

Observed pIC50 on UniProt:Q96LB1 for Cc1cc(-c2c(-c3c(C4CC4)nn4c3OC[C@@H](NS(C)(=O)=O)C4)[nH]c3ncccc23)c(C#N)s1 [EX. 457] , please. > 8.00

Lab note: need pIC50 with UniProt:Q96LB1 for entry FC(F)Oc1n[nH]cc1-c1c(-c2c(C(F)F)nn3c2OCCC3)[nH]c2ncccc12 [EX. 406] , please look it up. 6.00 to 7.00

For UniProt:Q96LB1, provide pIC50 of N#Cc1ccccc1-c1c(-c2c[nH]nc2C(F)(F)F)[nH]c2nccc(F)c12 [EX. 77] please. > 8.00

Give the reported pIC50 for Cn1cc(-c2c(-c3c(C(F)F)nn4c3OC[C@@H](OCCNS(C)(=O)=O)C4)[nH]c3ncccc23)c(OC(F)F)n1 [EX. 536] (system: UniProt:Q96LB1). > 8.00

Request: pIC50, test system UniProt:Q96LB1, entry [2H]c1cnc2[nH]c(-c3cn(C)nc3C(F)F)c(-c3cc(OC([2H])([2H])[2H])ccc3C#N)c2c1 [EX. 89] > 8.00

What pIC50 appears in the records for this compound with UniProt:Q96LB1? [2H]C([2H])([2H])Oc1ccc(C#N)c(-c2c(-c3c(CC)nn4c3OCCC4)[nH]c3ncccc23)c1 [EX. 200] > 8.00

----------
Let's look at some compounds and their measured pIC50.
Molecular target: MRGPRX2 (Homo sapiens)
Experiment: MRGPRX2 reporter cell assay (NFAT-RE luciferase, Substance P stimulation)
Assay type: cell-based
Conditions: U2OS cells stably transfected with MRGPRX2 and NFAT-RE luciferase reporter; Substance P at EC80
Scale: negative log10 of molar concentration, which is what pIC50 denotes.

For orientation, consider the following solved cases.
chemical_smiles | pIC50
CCc1nn2c(c1-c1[nH]c3ncccc3c1-c1cn(C)nc1OC(F)F)OC[C@@H](NC(=O)OC)C2 | 8.44
Cn1cc(-c2c(-c3c(C(F)F)nn4c3OC[C@@H](O)C4)[nH]c3ncccc23)c(OC(F)F)n1 | 8.36
COC(=O)N[C@@H]1COc2c(-c3[nH]c4ncccc4c3-c3cn(C)nc3OC(F)F)c(C(F)F)nn2C1 | 8.92
CO[C@]1(C)COc2c(-c3[nH]c4ncccc4c3-c3cn(C)nc3OC(F)F)c(C(F)F)nn2C1 | 8.39
Cn1cc(-c2c(-c3c(C(F)F)nn4c3OC[C@@H](F)C4)[nH]c3ncccc23)c(C#N)n1 | 8.59

For the compound shown here, Cn1cc(-c2c(-c3c(C(F)F)nn4c3OC[C@@H](OCCO)C4)[nH]c3ncccc23)c(OC(F)F)n1 , give the reported pIC50. 8.68

State the recorded pIC50 for this entry: COC(=O)N[C@]1(C)COc2c(-c3[nH]c4ncccc4c3-c3cccnc3OC(F)F)c(C(F)F)nn2C1 8.72

Which pIC50 reading was recorded for the compound COC(=O)N[C@@H]1COc2c(-c3[nH]c4ncccc4c3-c3cn(C)nc3C#N)c(C(F)F)nn2C1 ? 8.49

Requested field: pIC50. Item: Cn1cc(-c2c(-c3c(C(F)F)nn4c3OCCC4)[nH]c3ncccc23)c(OC(F)F)n1 8.54

Quick one: pIC50 for Cn1cc(-c2c(-c3c(C(F)F)nn4c3OC[C@@H](OCC(C)(C)O)C4)[nH]c3ncccc23)c(OC(F)F)n1 ? 8.70

----------
Target: MRGPRX2 (Homo sapiens, UniProt Q96LB1)
Experiment: MRGPRX2 reporter cell assay (NFAT-RE luciferase, Substance P stimulation)
Type: cell-based
Settings: U2OS cells stably transfected with MRGPRX2 and NFAT-RE luciferase reporter; Substance P at EC80; class symbols
pIC50: −log10 of the molar value.
measured_property: pIC50

Sample records with pIC50:
compound | pIC50
[2H]C([2H])([2H])Oc1ccc(C#N)c(-c2c(-c3c(C)nn4c3OCC(O)C4)[nH]c3ncccc23)c1 (stereo not drawn) [EX. 199] | > 8.00
O[C@@H]1COc2c(-c3[nH]c4ncccc4c3-c3ccncc3OC(F)F)c(C(F)F)nn2C1 [EX. 463] | > 8.00

Please turn your attention to the following entry.
Bench note: what pIC50 did O[C@@H]1COc2c(-c3[nH]c4ncccc4c3-c3cccnc3OC(F)F)c(C(F)F)nn2C1 [EX. 454] show? > 8.00

Origin of values: patent US20250326772A1
